Below: a set of entries, each annotated with reported cytotoxicity at 10 µM.
# measurement_notes: Toxicity liver stage against HepG2, at 10uM
# Type: cell-based
# Design: test concentration 10 uM, cell line HepG2-A16-CD81EGFP
# assay_context: human, HepG2-A16-CD81EGFP cells; read-out: INHIBITION
Numbers only here, please. The scale is %.

                                   compound  units_of_measure  quantitative_readout
0  COCC(=O)N1CCCC(C)(c2nncn2C)C1 (configuration not stated)                 %                  4.08
1  CCN1CCCC(c2c(-c3ccccc3)ncn2Cc2csc(N)n2)C1 (configuration not stated)                 %                -0.386
2          Cc1nc(C(C)C)sc1C(=O)NCCSc1ccccn1                 %                  3.76
3        Cc1nnc(NC(=O)N2CCC(N3CCCCC3)CC2)s1                 %                  7.15
4          O=C(c1ccccn1)N1CCC(Oc2cccnc2)CC1                 %                 -3.59

Query: Requested read-out: cytotoxicity at 10 µM. Entry: `NC(=O)Nc1cccc(CNC(=O)CCCOCc2ccccc2)c1`
Result: -8.06

Query: Fill in: cytotoxicity at 10 µM of `O=C(O)[C@@H]1CN(Cc2c[nH]c(CC3CCCC3)n2)C[C@H]1c1ccccn1` is ___
Result: 3.86

Query: // lookup cytotoxicity at 10 µM for `O=C(c1ncn2c(C3CCN(CC4CC4)CC3)ccnc12)N1CCCC1`
Result: -3

Query: Recorded cytotoxicity at 10 µM for `O=S(=O)(c1ccc(F)cc1)N1CCOC[C@H](Oc2cnccn2)C1` , please?
Result: 5.88

Query: I would be grateful if you could share the reported cytotoxicity at 10 µM for `CN(C)CCOCc1nnc2n1CCN(Cc1ccco1)C2` .
Result: 7.55

Query: Value lookup for cytotoxicity at 10 µM; key = `Nc1nccnc1C(=O)N1CCN(Cc2cccc3ccccc23)CC1`
Result: -108

Query: Record request: cytotoxicity at 10 µM value, item `CCCNC(=O)CCC(=O)N1CCC(c2n[nH]c(C3CC3)n2)CC1`
Result: -3.82
